tested on: HL-60; assay: cell viability (% survival relative to DMSO control); higher = less cytotoxic; details: 1 µM; 72 h; co-treatment: AZD3965 100 nM
Attribute: cell viability
Measured Quantity: cell viability (%)

>>> recorded_value("O=C(O)CC[C@H](NC(=O)c1ccc([N+](=O)[O-])cc1)C(=O)O [(S)-2-(4-Nitrobenzamido)pentanedioic acid]")
102
>>> recorded_value("NC(=O)c1ncn([C@@H]2O[C@H](CO)[C@@H](O)[C@H]2O)n1 [Ribavirin]")
99.8
>>> recorded_value("O=C(c1ccc(OCCN2CCCCC2)cc1)c1c(-c2ccc(O)cc2)sc2cc(O)ccc12 [Raloxifene]")
101
>>> recorded_value("N[C@](CCCCB(O)O)(CCN1CCCCC1)C(=O)O [Arginase inhibitor 1]")
99.2
>>> recorded_value("C1CCC(C(CC2CCCCN2)C2CCCCC2)CC1.O=C(O)/C=C\\C(=O)O (centres undefined) [Perhexiline]")
99.1
>>> recorded_value("CC(C(=O)O)C(=O)O [methylmalonate]")
107
>>> recorded_value("O=P(O)(O)C(O)(Cn1ccnc1)P(=O)(O)O [Zoledronic acid]")
101
>>> recorded_value("O=C(O)CCc1ccc(NCc2cccc(Oc3ccccc3)c2)cc1 [GW9508]")
105
>>> recorded_value("Cc1c2c(=O)n(-c3ccccc3Cl)[nH]c2cc(=O)n1Cc1ccccn1")
98.6

* * *

test system: SHI-1; assay: cell viability (% survival relative to DMSO control, bortezomib = 0%); higher = less cytotoxic; settings: 1000 nM; 72 h
Attribute: cell viability
Measured Quantity: cell viability (%)

>>> recorded_value("O=C(O)CCc1ccc(NCc2cccc(Oc3ccccc3)c2)cc1")
97.8
>>> recorded_value("CCOC(=O)[C@@]1(CCCCCCOc2ccc(Cl)cc2)CO1")
105
>>> recorded_value("CC(Cc1ccc(O)c(O)c1)C(C)Cc1ccc(O)c(O)c1 (configuration not stated)")
93.3
>>> recorded_value("CC(C(=O)O)C(=O)O [Methylmalonate]")
88.7
>>> recorded_value("CC(C)C[C@H](NC(=O)[C@@H](O)[C@H](N)Cc1ccccc1)C(=O)O")
80.5
>>> recorded_value("O=C(O)C(S)=Cc1c[nH]c2ccc(F)cc12")
102
>>> recorded_value("CCCc1nn(C)c2c(O)nc(-c3cc(S(=O)(=O)N4CCN(C)CC4)ccc3OCC)nc12")
111

* * *

system: MOLM-13; experiment: cell viability (% survival relative to DMSO control, bortezomib = 0%); higher = less cytotoxic; conditions: 1000 nM; 72 h
Output fulfilled for records whose cell viability is lower than 90%, not fulfilled for records at or above 90%.

>>> qualitative_label("C[C@]12CC[C@H](O)CC1=CC[C@@H]1[C@@H]2CC[C@]2(C)C(c3cccnc3)=CC[C@@H]12 [Abiraterone]")
"not fulfilled"
>>> qualitative_label("O=P(O)(O)C(O)(Cn1ccnc1)P(=O)(O)O [Zoledronic acid]")
"fulfilled"
>>> qualitative_label("O=C1Oc2ccccc2C(=O)C1CC1C(=O)Oc2ccccc2C1=O (stereo not given) [Dicumarol]")
"not fulfilled"
>>> qualitative_label("Oc1cc(Cl)ccc1Oc1ccc(Cl)cc1Cl [Triclosan]")
"fulfilled"
>>> qualitative_label("C[C@H]1O[C@@H](O[C@H]2[C@@H](O)C[C@H](O[C@H]3[C@@H](O)C[C@H](O[C@H]4CC[C@@]5(C)[C@H](CC[C@@H]6[C@@H]5C[C@@H](O)[C@]5(C)[C@@H](C7=CC(=O)OC7)CC[C@]65O)C4)O[C@@H]3C)O[C@@H]2C)C[C@H](O)[C@@H]1O [Digoxin]")
"fulfilled"
>>> qualitative_label("CC12CCC(O)CC1CCC1C2CCC2(C)C(C3=CC(=O)OC3)CCC12O (stereo not given) [Digitoxigenin]")
"fulfilled"
>>> qualitative_label("Cl.OC[C@H]1NC[C@@H](O)[C@@H](O)[C@@H]1O [1-Deoxymannojirimycin hydrochloride]")
"not fulfilled"
>>> qualitative_label("Sc1ncnc2nc[nH]c12 [6-mercaptopurine]")
"fulfilled"
>>> qualitative_label("C=CCc1ccc2c(c1O)C(=O)c1ccccc1C2=O [R162]")
"not fulfilled"
>>> qualitative_label("O=C(O)C(S)=Cc1c[nH]c2ccc(F)cc12")
"not fulfilled"
>>> qualitative_label("Cc1coc2c1C(=O)C(=O)c1c-2ccc2c(C)cccc12 [Tanshinone I]")
"not fulfilled"
